Provenance of the data: ChEMBL document CHEMBL3425449

Assay Remarks: Solubility of the compound at pH 7.4
Assay type: physicochemical
Particulars: buffer
Measured Quantity: solubility

[[record]]
structure_as_smiles = "C[C@@H]1CC[C@@H](Oc2cc(C#N)ccn2)CN1C(=O)c1ccccc1-c1ncccn1"
observed = "250 µg/mL"


###

Assay Remarks: Permeability in pig LLC-PK1 cells
Type: ADME, cell-based, Sus scrofa
Particulars: read-out: permeability
Measured Quantity: Papp (×10⁻⁶ cm/s)

[[record]]
structure_as_smiles = "C[C@@H]1CC[C@@H](Oc2cc(C#N)ccn2)CN1C(=O)c1ccccc1-c1ncccn1"
measured_quantity = "Papp"
readout_units = "×10⁻⁶ cm/s"
observed = 33


###

Assay Remarks: Unbound fraction in monkey plasma at 1 uM
Type: ADME, cell-free, Macaca mulatta
Particulars: rhesus monkey
Measured Quantity: fraction unbound at 1 µM

[[record]]
structure_as_smiles = "C[C@@H]1CC[C@@H](Oc2cc(C#N)ccn2)CN1C(=O)c1ccccc1-c1ncccn1"
measured_quantity = "fraction unbound at 1 µM"
observed = 0.239


###

Assay Remarks: Unbound fraction in dog plasma at 1 uM
Type: ADME, cell-free, Canis lupus familiaris
Measured Quantity: fraction unbound at 1 µM

[[record]]
structure_as_smiles = "C[C@@H]1CC[C@@H](Oc2cc(C#N)ccn2)CN1C(=O)c1ccccc1-c1ncccn1"
observed = 0.166


###

Assay Remarks: Clearance in dog at 10 mg/kg, po or 2 mg/kg, iv
Type: ADME, organism-based, Canis lupus familiaris
Particulars: in vivo
Measured Quantity: clearance (mL/min/kg)

[[record]]
structure_as_smiles = "C[C@@H]1CC[C@@H](Oc2cc(C#N)ccn2)CN1C(=O)c1ccccc1-c1ncccn1"
measured_quantity = "clearance"
readout_units = "mL/min/kg"
observed = 15

[[record]]
structure_as_smiles = "C[C@@H]1CC[C@@H](Oc2cc(C#N)ccn2)CN1C(=O)c1ccccc1-n1nccn1"
measured_quantity = "clearance"
readout_units = "mL/min/kg"
observed = 27

[[record]]
structure_as_smiles = "Cc1nc(-c2ccccc2C(=O)N2C[C@H](Oc3cc(C#N)ccn3)CC[C@H]2C)no1"
measured_quantity = "clearance"
readout_units = "mL/min/kg"
observed = 4.6


###

Subject Of Test: Orexin/Hypocretin receptor type 1 (Homo sapiens)
Sequence (O43613 whole entry): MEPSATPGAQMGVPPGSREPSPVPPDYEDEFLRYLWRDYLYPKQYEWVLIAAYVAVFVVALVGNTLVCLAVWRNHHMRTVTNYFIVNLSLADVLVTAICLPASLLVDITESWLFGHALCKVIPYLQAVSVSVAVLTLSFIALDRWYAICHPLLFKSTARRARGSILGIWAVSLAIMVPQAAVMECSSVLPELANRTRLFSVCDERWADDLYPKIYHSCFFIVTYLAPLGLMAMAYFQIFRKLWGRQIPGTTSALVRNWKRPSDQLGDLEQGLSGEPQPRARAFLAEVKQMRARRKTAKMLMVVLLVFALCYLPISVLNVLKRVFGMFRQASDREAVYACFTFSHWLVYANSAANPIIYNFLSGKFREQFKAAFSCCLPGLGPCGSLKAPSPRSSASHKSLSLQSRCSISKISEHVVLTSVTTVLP
Assay Remarks: Antagonist activity against human OX1R expressed in CHOK1 cells assessed as inhibition of orexin A-induced […] Ca2+ mobilization by FLIPR assay
Assay type: functional, cell-based, CHO-K1
Threshold 2000 nM: IC50 strictly smaller gives MET, otherwise NOT MET.

[[record]]
structure_as_smiles = "C[C@@H]1CC[C@@H](Oc2cc(S(C)(=O)=O)ccn2)CN1C(=O)c1ccccc1-n1nccn1"
cat = "MET"

[[record]]
structure_as_smiles = "COC(=O)c1ccnc(O[C@@H]2CC[C@@H](C)N(C(=O)c3ccccc3-n3nccn3)C2)c1"
cat = "MET"

[[record]]
structure_as_smiles = "CC(C)OC(=O)c1ccccc1C(=O)N1C[C@H](Oc2cc(C#N)ccn2)CC[C@H]1C"
cat = "NOT MET"

[[record]]
structure_as_smiles = "C[C@@H]1CC[C@@H](Oc2cc(C(=O)N(C)C)ccn2)CN1C(=O)c1ccccc1-n1nccn1"
cat = "NOT MET"

[[record]]
structure_as_smiles = "COC(=O)c1ccccc1C(=O)N1C[C@H](Oc2cc(C#N)ccn2)CC[C@H]1C"
cat = "NOT MET"

[[record]]
structure_as_smiles = "C[C@@H]1CC[C@@H](Oc2cc(C#N)ccn2)CN1C(=O)c1ccccc1-n1nccn1"
cat = "NOT MET"

[[record]]
structure_as_smiles = "C[C@@H]1CC[C@@H](Oc2cc(C#N)ccn2)CN1C(=O)c1ccccc1OC(F)F"
cat = "NOT MET"

[[record]]
structure_as_smiles = "CCc1ccnc(O[C@@H]2CC[C@@H](C)N(C(=O)c3ccccc3-n3nccn3)C2)c1"
cat = "MET"

[[record]]
structure_as_smiles = "Cc1ccnc(O[C@@H]2CC[C@@H](C)N(C(=O)c3ccccc3-n3nccn3)C2)c1"
cat = "MET"

[[record]]
structure_as_smiles = "C[C@@H]1CC[C@@H](Oc2cc(-c3ccccc3)ccn2)CN1C(=O)c1ccccc1-n1nccn1"
cat = "NOT MET"

[[record]]
structure_as_smiles = "C[C@@H]1CC[C@@H](Oc2cc(C#N)ccn2)CN1C(=O)c1ccccc1-c1ncccn1"
cat = "NOT MET"

[[record]]
structure_as_smiles = "C[C@@H]1CC[C@@H](Oc2cc(N(C)C)ccn2)CN1C(=O)c1ccccc1-n1nccn1"
cat = "MET"

